c-KIT (Homo sapiens, UniProt P10721) measurements of pKi, listed per entry.
Sequence (P10721 26-976): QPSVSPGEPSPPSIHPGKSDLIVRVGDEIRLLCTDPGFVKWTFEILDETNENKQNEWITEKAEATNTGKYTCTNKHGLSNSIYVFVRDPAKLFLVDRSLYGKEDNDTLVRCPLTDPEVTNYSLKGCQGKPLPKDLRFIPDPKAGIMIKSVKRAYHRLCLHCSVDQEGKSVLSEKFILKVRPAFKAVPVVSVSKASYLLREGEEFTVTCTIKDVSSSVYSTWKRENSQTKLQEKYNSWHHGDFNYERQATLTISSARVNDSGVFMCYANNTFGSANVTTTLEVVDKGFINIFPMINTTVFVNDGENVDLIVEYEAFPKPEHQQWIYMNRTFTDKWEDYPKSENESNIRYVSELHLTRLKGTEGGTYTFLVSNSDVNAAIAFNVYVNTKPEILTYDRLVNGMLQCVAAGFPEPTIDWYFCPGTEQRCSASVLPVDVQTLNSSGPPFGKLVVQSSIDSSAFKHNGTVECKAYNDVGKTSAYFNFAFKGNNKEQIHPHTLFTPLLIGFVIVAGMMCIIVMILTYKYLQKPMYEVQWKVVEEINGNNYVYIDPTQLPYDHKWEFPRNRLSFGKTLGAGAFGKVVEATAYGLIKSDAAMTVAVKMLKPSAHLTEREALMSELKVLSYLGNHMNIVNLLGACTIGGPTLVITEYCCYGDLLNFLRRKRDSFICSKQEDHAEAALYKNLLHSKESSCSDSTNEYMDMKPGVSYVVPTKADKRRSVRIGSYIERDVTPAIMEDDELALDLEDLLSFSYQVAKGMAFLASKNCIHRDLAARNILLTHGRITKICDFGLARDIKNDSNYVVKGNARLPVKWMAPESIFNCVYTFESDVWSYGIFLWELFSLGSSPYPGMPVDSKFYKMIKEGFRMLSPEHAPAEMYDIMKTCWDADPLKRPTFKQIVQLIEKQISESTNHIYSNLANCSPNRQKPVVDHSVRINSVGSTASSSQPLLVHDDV
pKi: −log10 of the molar value.

Look over these answered cases.
CC(=O)N1[C@H](C)CN(c2cc(-n3cnc(Nc4ccc(N5CCN(C(=O)OC(C)(C)C)CC5)cc4)n3)ccn2)C[C@@H]1C ... 6.30 to 7.30
CC(=O)N1[C@H](C)CN(c2cc(-n3cnc(Nc4ccc(NC(=O)NC(C)(C)C)cc4)n3)ccn2)C[C@@H]1C ... 6.30 to 7.30
CC(=O)N1CCCN(c2cc(-n3cnc(Nc4ccccc4)n3)ccn2)CC1 ... 6.30 to 7.30
CC1CCCN1c1cc(-n2cnc(Nc3ccccc3)n2)ccn1 (stereo not drawn) ... > 7.30
CCCNC(=O)Nc1ccc(Nc2ncn(-c3ccnc(N4C[C@@H](C)N(C(C)=O)[C@@H](C)C4)c3)n2)cc1 ... 6.30 to 7.30
CC(=O)N1[C@H](C)CN(c2cc(-n3cnc(Nc4ccc(NC(=O)N(C)C)cc4)n3)ccn2)C[C@@H]1C ... 6.30 to 7.30
CC(=O)N1[C@H](C)CN(c2cc(-n3cnc(Nc4ccc(NC(=O)OCC(C)C)cc4)n3)ccn2)C[C@@H]1C ... 6.30 to 7.30
CC(=O)N1[C@H](C)CN(c2cc(-n3cnc(Nc4ccccc4)n3)ccn2)C[C@@H]1C ... 6.30 to 7.30

Then there is this compound:
Exam item: Test system c-KIT (Homo sapiens, UniProt P10721); read-out pKi; what value for CC(=O)N1[C@H](C)CN(c2cc(-n3cnc(Nc4ccc(NC(=O)OCC(C)(C)C)cc4)n3)ccn2)C[C@@H]1C ?
Marked response: 6.30 to 7.30

----------
Ki tested on KDR (Homo sapiens): recorded values
Sequence (P35968 20-1356): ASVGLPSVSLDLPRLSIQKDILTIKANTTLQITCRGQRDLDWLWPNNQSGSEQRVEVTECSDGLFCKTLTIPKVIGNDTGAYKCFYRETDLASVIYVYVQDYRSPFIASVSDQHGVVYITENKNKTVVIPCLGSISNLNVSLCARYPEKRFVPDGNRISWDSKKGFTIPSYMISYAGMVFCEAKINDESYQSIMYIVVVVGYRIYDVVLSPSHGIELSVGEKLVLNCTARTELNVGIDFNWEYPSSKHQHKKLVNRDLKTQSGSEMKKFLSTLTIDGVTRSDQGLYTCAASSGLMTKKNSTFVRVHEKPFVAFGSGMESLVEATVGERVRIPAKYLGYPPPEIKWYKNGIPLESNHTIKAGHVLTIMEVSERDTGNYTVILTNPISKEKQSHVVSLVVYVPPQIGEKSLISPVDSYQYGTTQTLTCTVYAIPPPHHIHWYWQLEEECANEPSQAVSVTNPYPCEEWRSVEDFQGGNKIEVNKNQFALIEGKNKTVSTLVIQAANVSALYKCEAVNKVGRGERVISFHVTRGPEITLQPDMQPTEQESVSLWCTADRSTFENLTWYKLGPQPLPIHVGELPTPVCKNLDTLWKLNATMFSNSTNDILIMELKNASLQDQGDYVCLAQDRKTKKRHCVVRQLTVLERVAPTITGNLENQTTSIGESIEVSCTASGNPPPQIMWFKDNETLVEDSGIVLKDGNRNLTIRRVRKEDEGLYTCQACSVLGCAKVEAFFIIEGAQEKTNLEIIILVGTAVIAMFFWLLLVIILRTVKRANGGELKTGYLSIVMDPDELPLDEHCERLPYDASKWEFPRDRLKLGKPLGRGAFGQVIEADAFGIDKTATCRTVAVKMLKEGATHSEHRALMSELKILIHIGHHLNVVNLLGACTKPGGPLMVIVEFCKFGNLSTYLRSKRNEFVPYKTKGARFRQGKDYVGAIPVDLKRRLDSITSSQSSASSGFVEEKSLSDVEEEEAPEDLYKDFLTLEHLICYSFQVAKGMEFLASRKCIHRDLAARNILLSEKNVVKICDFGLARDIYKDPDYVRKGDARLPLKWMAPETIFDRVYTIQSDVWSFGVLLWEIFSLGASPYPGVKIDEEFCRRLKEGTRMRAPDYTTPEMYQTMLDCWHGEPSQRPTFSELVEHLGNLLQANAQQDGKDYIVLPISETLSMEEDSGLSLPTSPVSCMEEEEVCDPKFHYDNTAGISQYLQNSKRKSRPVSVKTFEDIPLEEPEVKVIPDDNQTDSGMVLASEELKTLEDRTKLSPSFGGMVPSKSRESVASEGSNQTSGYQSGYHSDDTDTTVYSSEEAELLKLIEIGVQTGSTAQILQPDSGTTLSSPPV

OC[C@H]1CCCN(c2cc(-n3cnc(Nc4ccccc4)n3)ccn2)C1 ... 100 to 1000 nM
CC(C)C(=O)N1CCCN(c2cc(-n3cnc(Nc4ccccc4)n3)ccn2)CC1 ... > 1000 nM
CN(Cc1ccccc1)c1cc(-n2cnc(Nc3ccccc3)n2)ccn1 ... 100 to 1000 nM
O=c1[nH]c2ccccc2n1C1CCN(c2cc(-n3cnc(Nc4ccccc4)n3)ccn2)CC1 ... > 1000 nM
O=C(CC1CCCC1)Nc1cc(-n2cnc(Nc3ccccc3)n2)ccn1 ... 100 to 1000 nM
CN(Cc1cccnc1)c1cc(-n2cnc(Nc3ccccc3)n2)ccn1 ... < 100 nM
CC(=O)N1[C@H](C)CN(c2cc(-n3cnc(Nc4ccc(N5CCOCC5)cc4)n3)ccn2)C[C@@H]1C ... 100 to 1000 nM
COC(=O)Nc1ccc(Nc2ncn(-c3ccnc(N4C[C@@H](C)N(C(C)=O)[C@@H](C)C4)c3)n2)cc1 ... < 100 nM
CC(=O)N1[C@H](C)CN(c2cc(-n3cnc(Nc4ccc(NC(=O)NC(C)(C)C)cc4)n3)ccn2)C[C@@H]1C ... 100 to 1000 nM
c1ccc(-n2cnc(Nc3ccc(N4CCOCC4)nc3)n2)cc1 ... 100 to 1000 nM

Exam item: Enter reported Ki observed with KDR (Homo sapiens) for CC1CCCN1c1cc(-n2cnc(Nc3ccccc3)n2)ccn1 (stereo not shown)
Marked response: < 100 nM

Exam item: Kindly state the measured Ki obtained for CC(=O)N1[C@H](C)CN(c2cc(-n3cnc(Nc4ccccc4)n3)ccn2)C[C@@H]1C with KDR (Homo sapiens).
Marked response: < 100 nM
